biological target: recombinant phosphatidylinositol 3-kinase-p120γ (PI3K) (Homo sapiens, UniProt P48736); experiment: biochemical
Sequence (P48736 whole entry): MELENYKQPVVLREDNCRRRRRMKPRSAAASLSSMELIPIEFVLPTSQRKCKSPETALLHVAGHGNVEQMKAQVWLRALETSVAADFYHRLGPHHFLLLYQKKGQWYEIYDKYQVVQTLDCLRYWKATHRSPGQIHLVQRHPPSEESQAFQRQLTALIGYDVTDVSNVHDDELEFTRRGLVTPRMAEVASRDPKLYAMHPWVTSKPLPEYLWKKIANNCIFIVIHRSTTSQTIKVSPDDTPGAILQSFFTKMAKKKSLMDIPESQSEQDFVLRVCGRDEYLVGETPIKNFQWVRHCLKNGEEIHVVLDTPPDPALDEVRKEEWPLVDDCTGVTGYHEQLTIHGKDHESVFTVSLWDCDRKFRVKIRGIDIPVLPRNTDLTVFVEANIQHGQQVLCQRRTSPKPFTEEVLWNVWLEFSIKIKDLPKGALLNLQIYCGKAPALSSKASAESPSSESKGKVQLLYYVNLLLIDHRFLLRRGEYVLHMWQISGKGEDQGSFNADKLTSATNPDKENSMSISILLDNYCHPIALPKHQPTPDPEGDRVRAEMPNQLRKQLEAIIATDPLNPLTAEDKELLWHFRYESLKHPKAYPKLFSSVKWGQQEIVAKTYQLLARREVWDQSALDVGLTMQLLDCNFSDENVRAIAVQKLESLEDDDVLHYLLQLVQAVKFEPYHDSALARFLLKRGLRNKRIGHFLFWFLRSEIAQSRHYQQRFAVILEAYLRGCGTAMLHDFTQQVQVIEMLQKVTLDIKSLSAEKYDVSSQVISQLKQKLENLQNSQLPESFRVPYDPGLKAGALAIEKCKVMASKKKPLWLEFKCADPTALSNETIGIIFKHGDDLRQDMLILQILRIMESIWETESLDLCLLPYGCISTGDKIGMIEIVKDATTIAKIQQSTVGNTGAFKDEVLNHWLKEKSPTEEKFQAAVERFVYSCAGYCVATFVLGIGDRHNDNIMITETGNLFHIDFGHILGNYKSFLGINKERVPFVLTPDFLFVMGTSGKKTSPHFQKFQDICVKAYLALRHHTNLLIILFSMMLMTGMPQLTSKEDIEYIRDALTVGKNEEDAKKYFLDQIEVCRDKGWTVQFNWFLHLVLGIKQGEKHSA
pIC50: −log10 of the molar value.
# pIC50 per entry
propertyName: pIC50

INSERT INTO measurements (smilesnotation, propertyname, measuredvalue) VALUES
  ('Nc1ncnc2nc(-c3ccc(O)c(O)c3)c(-c3ccc(O)c(O)c3)nc12', 'pIC50', 6.01),
  ('Nc1ncnc2nc(-c3cccc(O)c3)c(-c3cccc(O)c3)nc12', 'pIC50', 5.41),
  ('Nc1nc(O)c2nc(-c3cccc(O)c3)c(-c3cccc(O)c3)nc2n1', 'pIC50', 4.32),
  ('Nc1nc(N)c2nc(-c3ccc(O)c(O)c3)c(-c3ccc(O)c(O)c3)nc2n1', 'pIC50', 6.56);

----------
Below is a list of entries, each paired with its recorded remaining activity at 5 µM value.
target: human p120γ subunit of PI3K (Homo sapiens, UniProt P48736); construct: Upstate Group, Charlottesville, Va; (ran the assay under contract); experiment: PI3K p120γ enzymatic activity at two concentrations (Upstate Group); assay type: biochemical; conditions: 5 μM; 100% = no inhibition, 0% = complete inhibition; read-out: Percent Control Value at 5 μM
Sequence (P48736 whole entry): as above
Where a name gives a salt, the structure may show the parent alone.
propertyName: remaining activity at 5 µM (%)

INSERT INTO results (molecule, propertyname, measuredvalue) VALUES
  ('Nc1nc(N)c2nc(-c3cccc(O)c3)c(-c3cccc(O)c3)nc2n1', 'remaining activity at 5 µM', 5),
  ('Nc1cncc2nc(-c3cccc(O)c3)c(-c3cccc(O)c3)nc12 [hydrochloride salt]', 'remaining activity at 5 µM', 90),
  ('Nc1nc(N)c2nc(-c3ccc(O)c(O)c3)c(-c3ccc(O)c(O)c3)nc2n1', 'remaining activity at 5 µM', 12),
  ('Nc1cncc2nc(-c3ccc(O)cc3)c(-c3ccc(O)cc3)nc12', 'remaining activity at 5 µM', 94),
  ('Nc1nc(N)c2nc(-c3ccccc3)c(-c3ccccc3)nc2n1', 'remaining activity at 5 µM', 81),
  ('Nc1nc(O)c2nc(-c3cccc(O)c3)c(-c3cccc(O)c3)nc2n1', 'remaining activity at 5 µM', 99),
  ('Nc1ncnc2nc(-c3ccc(O)cc3)c(-c3ccc(O)cc3)nc12', 'remaining activity at 5 µM', 85),
  ('Nc1ncnc2nc(-c3cccc(O)c3)c(-c3cccc(O)c3)nc12', 'remaining activity at 5 µM', 71),
  ('Nc1nc(N)c2nc(-c3ccc(O)cc3)c(-c3ccc(O)cc3)nc2n1', 'remaining activity at 5 µM', 46);

----------
molecular target: human p120γ subunit of PI3K (Homo sapiens, UniProt P48736); construct: Upstate Group, Charlottesville, Va; (ran the assay under contract); test: PI3K p120γ enzymatic activity at two concentrations (Upstate Group); type: biochemical; details: 0.5 μM; 100% = no inhibition, 0% = complete inhibition; read-out: Percent Control Value at 0.5 μM
Counter-ions that a name gives are not always drawn.
propertyName: remaining activity at 0.5 µM

INSERT INTO assay_data (molecule, measuredvalue) VALUES
  ('Nc1nc(O)c2nc(-c3cccc(O)c3)c(-c3cccc(O)c3)nc2n1', '102%'),
  ('Nc1ncnc2nc(-c3cccc(O)c3)c(-c3cccc(O)c3)nc12', '97%'),
  ('Nc1ncnc2nc(-c3ccc(O)cc3)c(-c3ccc(O)cc3)nc12', '102%'),
  ('Nc1cncc2nc(-c3ccc(O)cc3)c(-c3ccc(O)cc3)nc12', '101%'),
  ('Nc1nc(N)c2nc(-c3ccc(O)c(O)c3)c(-c3ccc(O)c(O)c3)nc2n1', '66%'),
  ('Nc1nc(N)c2nc(-c3ccccc3)c(-c3ccccc3)nc2n1', '101%'),
  ('Nc1cncc2nc(-c3cccc(O)c3)c(-c3cccc(O)c3)nc12 [hydrochloride salt]', '101%'),
  ('Nc1nc(N)c2nc(-c3ccc(O)cc3)c(-c3ccc(O)cc3)nc2n1', '94%'),
  ('Nc1nc(N)c2nc(-c3cccc(O)c3)c(-c3cccc(O)c3)nc2n1', '47%');

----------
Below: a set of entries, each annotated with reported IC50.
Target: recombinant human Yes (Homo sapiens, UniProt P07947)
Sequence (P07947 whole entry): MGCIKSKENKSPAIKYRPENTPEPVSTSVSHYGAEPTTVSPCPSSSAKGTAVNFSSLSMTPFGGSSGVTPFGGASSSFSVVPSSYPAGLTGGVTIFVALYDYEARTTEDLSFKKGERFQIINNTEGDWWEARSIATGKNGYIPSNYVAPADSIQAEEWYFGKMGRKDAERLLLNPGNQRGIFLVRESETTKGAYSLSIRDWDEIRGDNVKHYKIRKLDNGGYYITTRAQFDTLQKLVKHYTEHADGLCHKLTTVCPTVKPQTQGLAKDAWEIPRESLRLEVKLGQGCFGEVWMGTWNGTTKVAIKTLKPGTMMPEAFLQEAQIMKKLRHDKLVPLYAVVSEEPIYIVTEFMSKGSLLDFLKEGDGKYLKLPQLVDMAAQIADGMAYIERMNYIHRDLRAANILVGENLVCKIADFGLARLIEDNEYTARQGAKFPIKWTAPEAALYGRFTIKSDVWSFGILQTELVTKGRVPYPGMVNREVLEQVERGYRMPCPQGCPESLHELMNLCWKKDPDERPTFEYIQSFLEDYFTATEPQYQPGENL
Assay: Yes kinase inhibition, KinaseGlo residual ATP
Settings: ATP 3 μM, 90 minutes at room temperature
Source text: The ability of compounds to inhibit the activity of two Src-family kinases (c-Src and Yes) was directly tested.
Where a name gives a salt, the structure may show the parent alone.
propertyName: IC50 (nM)

INSERT INTO results (compound, measurementunits, measuredvalue) VALUES
  ('O=C(Nc1ccccc1-c1cc2ccccc2[nH]1)c1ccc(O)c(O)c1', 'nM', 303),
  ('Nc1nnc2cc(-c3ccccc3C(F)(F)F)ccc2n1', 'nM', 7000),
  ('Nc1nnc2cc(-c3cccc(O)c3)ccc2n1', 'nM', 6800),
  ('Nc1cncc2nc(-c3ccc(O)c(O)c3)c(-c3ccc(O)c(O)c3)nc12 [hydrochloride salt]', 'nM', 1000),
  ('Nc1ncnc2nc(-c3cccc(O)c3)c(-c3cccc(O)c3)nc12 [hydrochloride salt]', 'nM', 6300),
  ('Nc1nnc2cc(-c3cccc4ccccc34)ccc2n1', 'nM', 9300),
  ('Nc1nc(N)c2nc(-c3ccc(O)c(O)c3)c(-c3ccc(O)c(O)c3)nc2n1 [dihydrochloride salt]', 'nM', 1100),
  ('Nc1ncc2nc(-c3cccc(O)c3)c(-c3cccc(O)c3)nc2n1', 'nM', 3800),
  ('Oc1nc(O)c2nc(-c3ccc(O)c(O)c3)c(-c3ccc(O)c(O)c3)nc2n1', 'nM', 900),
  ('Nc1ccc2nc(-c3ccc(O)c(O)c3)c(-c3ccc(O)c(O)c3)nc2n1 [compound C, dihydrochloride salt]', 'nM', 756);
